Biological target: T1, extracellular domain of hIL10Rb (human, UniProt Q08334 20-220)
T1 construct: also called hIL10Rb ECD; human IL10Rb
T1 sequence: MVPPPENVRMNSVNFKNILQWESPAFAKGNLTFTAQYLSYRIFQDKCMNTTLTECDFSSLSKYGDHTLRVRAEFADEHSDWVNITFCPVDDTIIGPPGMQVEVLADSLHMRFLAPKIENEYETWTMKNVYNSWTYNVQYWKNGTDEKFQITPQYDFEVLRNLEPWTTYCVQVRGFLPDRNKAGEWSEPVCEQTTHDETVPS
Test: flow cytometry

binder	binding result
hIL10Rb_VHH-9 (VHH, anti-hIL10Rb camel VHH) VHH: QVQLQESGGGLVQPGGSLRLSCAASGYTYSSGCMGWFRQAPGKEREGVATINSDGSTNYADSVKGRFTISKDNAKNTLYLQMNSLKPEDTAMYYCAAEPYCSGGYPRWSVAEFGYWGQGTQVTVSS	binds
hIL10Rb_VHH-7 (VHH, anti-hIL10Rb camel VHH) VHH: QVQLQESGGGSVQAGGSLRLSCAASGYTYSSGCMGWFRQAPGKEREGVATINSDGSTNYADSVKGRFTISKDNAKNTLYLQMNSLKPEDTAMYYCAAEPYCSGGYPRWSVAEFGYWGQGTQVTVSS	binds

Just for reference, patent US20230391891A1 is where these values come from.
